These data points were gathered from patent US6335339B1.

Please respond with reported pEC50 for every item in the list.
System: HBV
Experiment: antiviral assay in 2.2.15 cells producing HBV (virion DNA dot blot)
Type: cell-based, Hepatitis B virus
Settings: extra-cellular virus reduced by 50%; 2.2.15 cells, 9 days treatment; read-out: Antiviral EC50
One number for each entry, as −log10 of the molar value.

Return pEC50 (reported value) for this molecule: Oc1ccccc1C=NNc1nc(Nc2ccccc2)nc(N2CCCCC2)n1 [Compound 169]
5.60

Return pEC50 (reported value) for this molecule: Cc1ccc(Nc2nc(NN=Cc3ccccc3)nc(Nc3ccccc3)n2)cc1 [Compound 25]
6.00

Return pEC50 (reported value) for this molecule: CC(=NNc1nc(Nc2ccccc2)nc(N2CCCC2)n1)c1ccc([N+](=O)[O-])cc1 [Compound 183]
4.28

Return pEC50 (reported value) for this molecule: CNc1nc(NN=Cc2ccccc2C(F)(F)F)nc(Nc2cccc(C(F)(F)F)c2)n1 [Compound 253]
4.74

Return pEC50 (reported value) for this molecule: COc1ccc(Nc2nc(NN=Cc3ccc(OC)cc3OC)nc(Nc3ccccc3)n2)cc1 [Compound 20]
5.39

List the reported pEC50 of each molecule below.
1. FC(F)(F)c1cccc(Nc2nc(Nc3ccccc3)nc(N3CCOCC3)n2)c1 [Compound 21]
2. Cc1ccc(Nc2nc(NN=Cc3ccccc3O)nc(Nc3ccc([N+](=O)[O-])cc3)n2)cc1C [Compound 12]
3. FC(F)(F)c1cccc(Nc2nc(Nc3cccc(Br)c3)nc(N3CCOCC3)n2)c1 [Compound 38]
4. COc1ccc(Nc2nc(NN=Cc3ccc(O)cc3O)nc(Nc3ccccc3)n2)cc1 [Compound 158]
5. Brc1cc2c(cc1C=NNc1nc(NCc3ccccc3)nc(Nc3ccccc3)n1)OCO2 [Compound 43]
6. O=[N+]([O-])c1cc(C=NNc2nc(Nc3ccccc3)nc(N3CCOCC3)n2)ccc1Cl [Compound 52]
7. C(=NNc1nc(Nc2ccccc2)nc(N2CCCCC2)n1)c1ccccc1 [Compound 3]
8. Oc1ccc(Cl)cc1C=NNc1nc(Nc2ccc3ccccc3c2)nc(N2CCOCC2)n1 [Compound 160]

1: 5.25; 2: 6.12; 3: 6.23; 4: 4.38; 5: 6.08; 6: 5.35; 7: 5.32; 8: 6.38
